assay: Toxicity against brine shrimp; type: organism-based; settings: artemia, in vivo
measuredEndpoint: LC50 (µg/mL)
Enter your answer as a number in µg/mL; do not include the unit.

Record C=C1C(=O)O[C@H]2[C@H]1CC[C@@]1(C)[C@@H](O)C=C[C@@]3(C)O[C@]231 [RATIBINOLIDE II] . Reported LC50: 69.5

Source: ChEMBL document CHEMBL1158982
